List of GI50 values.
Test system: CCRF-CEM leukemia
Assay: NCI tumour cell line growth inhibition, 48 h
ASSAY_ENDPOINT: GI50

O=C(Nc1ccc(I)cc1F)c1cc(I)ccc1O
943 nM
CCCCOc1ccc(/C=N/Nc2cc(C)nc3ccc(Cl)cc23)cc1
1860 nM
C#Cc1cc2c(N)c(C(=O)c3cc(OC)c(OC)c(OC)c3)[nH]c2cc1OC
630 nM
C=CCCC(=O)N1C=CC(=O)[C@H](O)[C@@H]1/C=C/c1ccccc1
5610 nM
Oc1c(CN2CCOCC2)cc(COCc2ccccc2)c2cccnc12
494 nM
Cn1ncc(-c2ccc3c(=O)[nH]nc(CN)c3c2)c1-c1c(F)cc2ccccc2c1C#N
10700 nM
CC(=O)C1(O)Cc2c(O)c3c(c(O)c2C(OC2CC(N)C(O)C(C)O2)C1)C(=O)c1ccccc1C3=O (centres undefined)
2.14 nM
Oc1ccc(Cl)cc1-c1cc(-c2ccc(F)cc2)n[nH]1
452 nM
Cc1c(C(=O)O[C@H]2[C@@H]3[C@H](C)CC[C@H]3[C@]3(C)O[C@@]2(C2CCCCC2)C[C@H]3OC(=O)CO)ccc2ccccc12
9130 nM
CCc1nc(-n2c(-c3ccccc3)nc3ccccc3c2=O)nc(N)c1-c1ccc(Cl)cc1
9940 nM
c1ccc2nc(OCCN3CC3)ccc2c1
4400 nM
CC[C@H](NC(=O)[C@H](CS(=O)(=O)CC1CC1)N[C@@H](c1ccc(F)cc1)C(F)(F)F)C(=O)C(=O)NC1CC1
> 100000 nM
CO[C@H](C(=O)O)[C@@H]1Cc2cc3cc(OC4CC(OC5CC(O)C(O)C(C)O5)C(O)C(C)O4)c(C)c(O)c3c(O)c2C(=O)[C@H]1OC1CC(OC2CC(OC3CC(C)(O)C(O)C(C)O3)C(O)C(C)O2)C(O)C(C)O1 (some centres undefined)
330 nM
CCOc1cc(C(C)(C)C)ccc1C1=N[C@@](C)(c2ccc(Cl)cc2)[C@@](C)(c2ccc(Cl)cc2)N1C(=O)N1CCN(CCS(C)(=O)=O)CC1
2600 nM

---

System: MDA-MB-231 breast
Assay: NCI tumour cell line growth inhibition, 48 h
So basically: TGI at 5 µM or higher? That is T. Lower than 5 µM? That is F.

COc1ccc2c(c1)-c1[nH]c3ccccc3c1CC2
T
CCOC(=O)CC[C@H](N)C(=O)N[C@H](Cc1ccc(N(CCCl)CCCl)cc1)C(=O)OCC
T
CCOC(=O)/C(C#N)=C/Nc1ccc(-c2nc3ccccc3[nH]2)cc1
T
CC[C@H](C)C1=C(OC(C)=O)[N@+]2([O-])Oc3ccc(-c4c(OC(C)=O)c(OC(C)=O)c(-c5ccc(OC(C)=O)cc5)c(OC(C)=O)c4OC(C)=O)cc3O[C@]2([C@@H](C)CC)C(=O)N1OC(C)=O
T
COc1c(N2CCN(Cn3c(O)c(N=NC(=O)c4ccncc4)c4cc(F)ccc43)C(C)C2)c(F)cc2c(=O)c(C(=O)O)cn(C3CC3)c12 (configuration not stated)
T
CC[C@H](NC(=O)[C@H](CS(=O)(=O)CC1CC1)N[C@@H](c1ccc(F)cc1)C(F)(F)F)C(=O)C(=O)NC1CC1
T
CCN1CCNc2c3cc(OC)ccc3nc3c([N+](=O)[O-])ccc1c23
F
CCOC(=O)Cc1csc(NC(=O)COC(=O)c2ccc(OC)cc2)n1
T
C#Cc1cc2c(N)c(C(=O)c3cc(OC)c(OC)c(OC)c3)[nH]c2cc1OC
T
O=C(Nc1cc(-c2cccnc2)nc(NCCCN2CCOCC2)n1)c1cc(Br)cc(C(F)(F)F)c1
F
N=C(N)SCCc1ccccn1
T
COc1cc(C=O)cc(C=Nc2ccc(S(N)(=O)=O)cc2)c1O
T
COC(=O)[C@]12CC[C@@H](C)[C@H](C)[C@@H]1C1=CC[C@@H]3[C@@]4(C)CC(=O)[C@H](OC(=O)c5ccco5)[C@@]5(C)COC(=C45)C[C@@]3(C)[C@]1(C)CC2
T
COc1ccc2[nH]c(O)c(/C=c3/cc4c(c(-c5ccc(F)cc5)n3)=Nc3ccccc3-4)c2c1
F
C[N+](C)(N)c1nc(N)c(C#N)c(C#N)c1C#N
T
O=[As]c1ccc(C(=O)c2ccc(Oc3ccccc3)cc2)cc1 (configuration not stated)
F
CC(C)c1cccc(C(C)C)c1OS(=O)(=O)NC(=O)OC(C(F)(F)F)C(F)(F)F
T

---

System: DU-145 prostate
Assay: NCI tumour cell line growth inhibition, 48 h
ASSAY_ENDPOINT: GI50

O=S(=O)(O)ONC1=NCCN1
> 100 µM
O=[N+]([O-])c1cc(F)c2cccnc2c1O
6.28 µM
Cn1ncc(-c2ccc3c(=O)[nH]nc(CN)c3c2)c1-c1c(F)cc2ccccc2c1C#N
8.59 µM
O=C(CC(=O)c1ccccc1)c1ccccc1
11.9 µM
Nc1c(C(=O)Nc2cccc(Br)c2)sc2nc3c(cc12)C(O)CCC3 (stereo unspecified)
0.455 µM
CC1(C)[C@@H](OC(N)=O)C=C[C@]2(C=O)[C@H]3CC[C@]4(C)[C@@H](c5ccc(=O)oc5)[C@@H](Cl)C[C@]4(O)C3=CC[C@@H]12
0.0041 µM
CCCCOc1ccc(/C=N/Nc2cc(C)nc3ccc(Cl)cc23)cc1
1.82 µM
O=C(CCl)Nc1cc(O)c2c(c1)C(=O)c1cccc(O)c1C2=O
1.56 µM
COc1cc(-c2nn(-c3ccc(NC(=O)c4cc(Cl)cc(Cl)c4)cc3)cc2-c2ccncc2)ccc1Cl
> 100 µM
CCOC(=O)Cc1csc(NC(=O)COC(=O)c2ccc(OC)cc2)n1
57.2 µM
CN(C)CCNc1nc2ccccc2c2c(=O)c3ccccc3sc12
2.31 µM
CCc1nc(-n2c(-c3ccccc3)nc3ccccc3c2=O)nc(N)c1-c1ccc(Cl)cc1
72.6 µM
O=C1c2ccn(CCCCN3CCC(O)CC3)c2C(=O)c2c1c(O)c1ccccc1c2O
7.98 µM
O=C(Nc1ccc(I)cc1F)c1cc(I)ccc1O
0.873 µM
COc1cc2c(cc1OC)-c1ncc3cc4c(cc3c1C2)OCO4
25.3 µM
CC[C@H](NC(=O)[C@H](CS(=O)(=O)CC1CC1)N[C@@H](c1ccc(F)cc1)C(F)(F)F)C(=O)C(=O)NC1CC1
> 100 µM
c1ccc2nc(OCCN3CC3)ccc2c1
14.8 µM
CCOc1cc(C(C)(C)C)ccc1C1=N[C@@](C)(c2ccc(Cl)cc2)[C@@](C)(c2ccc(Cl)cc2)N1C(=O)N1CCN(CCS(C)(=O)=O)CC1
4.85 µM
CC(C)(C)C(=O)OCc1nc2cc3c(cc2c(=O)[nH]1)CCC3=O
> 100 µM
COc1cc([C@@H]2c3cc4c(cc3C(OC3O[C@@H]5COC(C)O[C@H]5[C@H](O)[C@H]3O)C3COC(=O)[C@@H]32)OCO4)cc(OC)c1O (stereo partly specified)
1.2 µM
CCCn1c(N)c(C(=O)CNc2ccc(I)cc2)c(=O)[nH]c1=O
7.12 µM

---

System: NCI-H522 lung
Test: NCI tumour cell line growth inhibition, 48 h
ASSAY_ENDPOINT: TGI (µM)

O=S(=O)(/N=C(\NO)Nc1ccc(Cl)cc1)c1ccc(-c2ccccn2)s1
31.8
c1ccc2nc(OCCN3CC3)ccc2c1
4.04
COc1cc2c(cc1OC)-c1ncc3cc4c(cc3c1C2)OCO4
48.4

---

Tested on: SN12C renal
Experiment: NCI tumour cell line growth inhibition, 48 h; in the data active means GI50 below about 0.43 µM; inactive means the rest
Possible outcomes: 1 for active, 0 for inactive

CCOC(=O)c1ccccc1-c1c2ccc(=[N+](C)C)cc-2oc2cc(N(C)C)ccc12
1
Cn1ccnc1C[N-]Cc1nccn1C.O=[N+]([O-])[O-].O=[N+]([O-])[O-].[Cu+2]
0
COc1cc(C2c3cc4c(cc3[C@@H](Nc3ccc(N)cc3)C3COC(=O)[C@H]23)OCO4)cc(OC)c1O (stereo partly drawn)
0
O=C(CCl)Nc1cc(O)c2c(c1)C(=O)c1cccc(O)c1C2=O
0
OC(COc1cccc2ccccc12)CN1CCN(c2ccccc2Cl)CC1 (stereo not drawn)
0
CCOC(=O)Cc1csc(NC(=O)COC(=O)c2ccc(OC)cc2)n1
0
O=C1c2ccn(CCCCN3CCC(O)CC3)c2C(=O)c2c1c(O)c1ccccc1c2O
0
CCOc1cc(C(C)(C)C)ccc1C1=N[C@@](C)(c2ccc(Cl)cc2)[C@@](C)(c2ccc(Cl)cc2)N1C(=O)N1CCN(CCS(C)(=O)=O)CC1
0
CCOC(=S)SCN1C(=O)c2ccccc2S1(=O)=O
0
CC(=O)N1CCN(CCOc2ccc(C3CCN(C4=Nn5c(nnc5C(F)(F)F)CC4)CC3)cc2)CC1
0
C1C[OH+]CC[OH+]CC[OH+]CC[OH+]CC[OH+]CC[OH+]1.[Cl-].[Nb+5]
0
CCc1nc(-n2c(-c3ccccc3)nc3ccccc3c2=O)nc(N)c1-c1ccc(Cl)cc1
0
Cc1sc2ncn(Cc3ccc(Cl)c(Cl)c3)c(=O)c2c1C
0
O=C(CC(=O)c1ccccc1)c1ccccc1
0
Cc1ccc2c(c1)C(=O)c1c-2n(CCCN=[N+]=[N-])c(=O)c2cc([N+](=O)[O-])ccc12
0
O=S(=O)(O)ONC1=NCCN1
0
O=C(Nc1ccc(I)cc1F)c1cc(I)ccc1O
0
O=c1c2c3c(sc2n2c(-c4ccc(Br)cc4)nnc2n1Cc1ccccc1)CCCC3
0
